target or system: T1, HLA-A2.1 on T2 cells (human)
T1 construct: Peptide-receptive HLA-A2.1 on T2 cells; also called HLA-A2.1 MHC class I molecules
procedure text: peptide binding to HLA-A2.1+ T2 cells, complex stability; no Brefeldin A (T2 alone 215)
measured attribute: binding score (HLA-A2.1 on T2 cells)
Provide a numeric answer; units are not to be included.

Please review the following examples before continuing.
YIILGDSPV (Modified CD33 peptide) [YIILGDSPV (SEQ ID NO: 12)] | 465
YLISGDSPV (Modified CD33 peptide) [YLISGDSPV (SEQ ID NO: 7)] | 701
YIISGDLPV (Modified CD33 peptide) [YIISGDLPV (SEQ ID NO: 13)] | 619
YIISGDSPL (Modified CD33 peptide) [YIISGDSPL (SEQ ID NO: 15)] | 428
YIISGDSPV (Modified CD33 peptide) [YIISGDSPV (SEQ ID NO: 3)] | 547

Then there is this binder:
For ALISGDSPV (Modified CD33 peptide) [ALISGDSPV (SEQ ID NO: 16)] the binder record lists binding score (HLA-A2.1 on T2 cells) as 603
